- experimental-system: alpha 2B receptor (Homo sapiens)
- Construct: expressed in transfected cells; host or cells: NIH-3T3
- Sequence (P18089 whole entry): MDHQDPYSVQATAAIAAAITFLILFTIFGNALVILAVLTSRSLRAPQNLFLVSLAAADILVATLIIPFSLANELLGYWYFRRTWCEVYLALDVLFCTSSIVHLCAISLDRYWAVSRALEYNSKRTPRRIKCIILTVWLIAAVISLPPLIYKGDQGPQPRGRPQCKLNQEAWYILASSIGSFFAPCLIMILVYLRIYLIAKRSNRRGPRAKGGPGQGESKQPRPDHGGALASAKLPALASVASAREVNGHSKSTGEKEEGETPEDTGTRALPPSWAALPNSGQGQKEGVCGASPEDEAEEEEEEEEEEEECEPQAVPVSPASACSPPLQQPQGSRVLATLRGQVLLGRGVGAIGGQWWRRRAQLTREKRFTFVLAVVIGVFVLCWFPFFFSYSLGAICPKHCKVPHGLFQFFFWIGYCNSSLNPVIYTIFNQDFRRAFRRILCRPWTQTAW
- test: RSAT assay (Receptor Selection and Amplification Technology), Alpha 2B
- Format: cell-based
- measurement-conditions: RSAT, transfected NIH-3T3 cells with Gq/i5; Table 1; read-out: potency nM (EC50) Alpha 2B
readout-name: EC50 (nM)

Here's what some known entries look like.
1) Fc1cccc(C(Cc2ccncc2)/N=C2/NCCO2)c1 (centres unmarked) : 14.3
2) Cc1cccc(C(Cc2ccncc2)/N=C2/NCCS2)c1C (centres unmarked) : 3.8
3) Clc1cccc(C(Cc2ccncc2)N=C2NCCN2)c1Cl (centres unmarked) : 1

P. COc1ccccc1C(Cc1cccnc1)/N=C1/NCCO1 (centres unmarked)
Q. Cc1cccc(C(Cc2ccncc2)/N=C2/NCCO2)c1C (centres unmarked)
Select one. Lower EC50: P or Q Your answer should be the label attached to the chosen record.
Q

a. c1ccc(C(Cc2ccncc2)/N=C2/NCCS2)cc1 (centres unmarked)
b. c1ccc(C(Cc2cnccn2)N=C2NCCN2)cc1 (centres unmarked)
c. c1ccc(C(Cc2cnccn2)/N=C2/NCCO2)cc1 (centres unmarked)
d. COc1ccccc1C(Cc1cccnc1)/N=C1/NCCS1 (centres unmarked)
e. Clc1cccc(C(Cc2ccncc2)/N=C2/NCCO2)c1Cl (centres unmarked)
Could you please order the items by EC50, going from the lowest number to the highest? Order the labels as requested and list them.
e, a, d, c, b
(e: 5 nM, a: 10 nM, d: 17 nM, c: 132 nM, b: 198 nM)

a. c1ccc(C(Cc2cnccn2)/N=C2/NCCS2)cc1 (centres unmarked)
b. Clc1cccc(C(Cc2ccncc2)/N=C2/NCCS2)c1Cl (centres unmarked)
I would appreciate it if you could say which entry, a or b , has the lower EC50 value. Lab note: record the label of whichever item you select.
b
(b: 2 nM, a: 170 nM)
